Ref: patent US7799829B2

metric name: melting point

Some compounds with recorded melting point:
QUERY: Bench note: what melting point did CCCC(=O)OC(C)OC(=O)NC1(C(=O)O)CC1 (stereo not shown) [Compound 7] show?
RESULT: 90.4 to 93.4 °C

QUERY: Bench note: what melting point did CC(C)CC(=O)OC(C)OC(=O)NC1(C(=O)O)CC1 (stereo not shown) [Compound 5] show?
RESULT: 116.6 to 119.1 °C

QUERY: Bench note: what melting point did CC(C)C(OC(=O)/C=C/c1ccccc1)OC(=O)NC1(C(=O)O)CC1 (stereo not shown) [Compound 18] show?
RESULT: 147.8 to 150.2 °C

More entries:
QUERY: Bench note: what melting point did CC(C)C(=O)OC(OC(=O)NC1(C(=O)O)CC1)C(C)C (stereo not shown) [Compound 2] show?
RESULT: 127.4 to 129 °C

QUERY: Bench note: what melting point did CC(OC(=O)NC1(C(=O)O)CC1)OC(=O)C(C)C (stereo not shown) [Compound 1] show?
RESULT: 127 to 129.5 °C

QUERY: Bench note: what melting point did Cc1ccc(C(=O)OCCOC(=O)NC2(C(=O)O)CC2)cc1 [Compound 21] show?
RESULT: 177.7 to 182.5 °C

QUERY: Bench note: what melting point did O=C(Cc1ccccc1)OCCOC(=O)NC1(C(=O)O)CC1 show?
RESULT: 142.1 to 145.6 °C

QUERY: Bench note: what melting point did COc1ccc(C(=O)OCCOC(=O)NC2(C(=O)O)CC2)cc1OC [Compound 14] show?
RESULT: 171.8 to 173.6 °C

QUERY: Bench note: what melting point did O=C(CCc1ccccc1)OCCOC(=O)NC1(C(=O)O)CC1 [Compound 17] show?
RESULT: 132.9 to 134.4 °C

QUERY: Bench note: what melting point did O=C(NC1(C(=O)O)CC1)OCCOC(=O)C1CCCCC1 [Compound 10] show?
RESULT: 123.6 to 125.3 °C

====

- test protocol: Bioavailability of α-amino acid following intracolonic administration of prodrugs in rats (intravenous α-amino acid as reference)
- Format: in vivo
- test conditions: rat, whole blood, intravenous, dosed at 20 mg-eq/kg, used as reference for bioavailability calculations, read-out: AUCinf for the intravenously administered α-amino acid
metric name: AUC(0-inf)
Answers without a unit are incomplete; give the number and then its unit.

QUERY: Bench note: what AUC(0-inf) did NC1(C(=O)O)CC1 [1-aminocyclopropanecarboxylic acid, reference compound] show?
RESULT: 85900 ng·h/mL
